These data points were gathered from patent US8513411B2.

TEST SYSTEM: DPP-IV enzyme (Homo sapiens, UniProt P27487)
Sequence (P27487 whole entry): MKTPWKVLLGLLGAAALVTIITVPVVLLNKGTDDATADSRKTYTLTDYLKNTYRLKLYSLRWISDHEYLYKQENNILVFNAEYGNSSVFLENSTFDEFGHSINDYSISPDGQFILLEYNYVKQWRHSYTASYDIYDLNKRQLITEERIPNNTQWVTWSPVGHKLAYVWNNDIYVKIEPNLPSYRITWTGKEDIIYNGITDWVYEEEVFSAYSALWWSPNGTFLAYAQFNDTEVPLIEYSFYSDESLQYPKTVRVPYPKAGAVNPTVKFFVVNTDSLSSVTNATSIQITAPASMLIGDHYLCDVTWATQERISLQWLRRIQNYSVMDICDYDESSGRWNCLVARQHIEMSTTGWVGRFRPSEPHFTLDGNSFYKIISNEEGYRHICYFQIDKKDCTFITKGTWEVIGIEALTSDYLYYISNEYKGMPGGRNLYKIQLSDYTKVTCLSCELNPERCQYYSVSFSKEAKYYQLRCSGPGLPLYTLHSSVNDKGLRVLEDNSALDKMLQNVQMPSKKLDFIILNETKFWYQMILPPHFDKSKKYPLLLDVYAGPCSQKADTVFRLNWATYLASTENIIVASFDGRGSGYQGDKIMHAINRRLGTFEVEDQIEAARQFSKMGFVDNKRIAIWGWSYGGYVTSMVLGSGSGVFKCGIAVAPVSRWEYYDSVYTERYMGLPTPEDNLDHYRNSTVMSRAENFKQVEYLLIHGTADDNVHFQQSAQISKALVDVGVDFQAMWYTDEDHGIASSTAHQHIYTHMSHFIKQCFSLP
pIC50: −log10 of the molar value. Structures can show the parent of a compound that is named as a salt.
Please use satisfied whenever pIC50 is not below 7, and not satisfied whenever it is.

QUERY: Confirm if pIC50 reported for the compound `CCNC(=O)c1nc(C(F)(F)F)n2c1CN(C(=O)C[C@H](N)Cc1cc(F)c(F)cc1F)CC2` is 7 or above.
RESULT: satisfied

QUERY: Confirm if pIC50 reported for the compound CCOC(=O)OC(C)OC(=O)c1nc(C(F)(F)F)n2c1CN(C(=O)C[C@H](N)Cc1cc(F)c(F)cc1F)CC2 (stereo partly shown) [Example 34, hydrochloride] is 7 or above.
RESULT: satisfied

QUERY: Confirm if pIC50 reported for the compound CN1CCN(C(=O)c2nc(C(F)(F)F)n3c2CN(C(=O)C[C@H](N)Cc2cc(F)c(F)cc2F)CC3)CC1 [Example 5, dihydrochloride] is 7 or above.
RESULT: satisfied

QUERY: Confirm if pIC50 reported for the compound N#CCNC(=O)c1nc(C(F)(F)F)n2c1CN(C(=O)C[C@H](N)Cc1cc(F)c(F)cc1F)CC2 [Example 4, hydrochloride] is 7 or above.
RESULT: satisfied

QUERY: Confirm if pIC50 reported for the compound CC(C)(C)OC(=O)c1nc(C(F)(F)F)n2c1CN(C(=O)C[C@H](N)Cc1cc(F)c(F)cc1F)CC2 [Example 36, hydrochloride] is 7 or above.
RESULT: not satisfied

QUERY: Confirm if pIC50 reported for the compound CCOC(=O)c1nc(C(F)(F)F)n2c1CN(C(=O)C[C@H](N)Cc1cc(F)c(F)cc1F)CC2 [Example 23, hydrochloride] is 7 or above.
RESULT: satisfied

QUERY: Confirm if pIC50 reported for the compound N[C@@H](CC(=O)N1CCn2c(C(F)(F)F)nc(C(=O)N3CCNCC3)c2C1)Cc1cc(F)c(F)cc1F [Example 13, dihydrochloride] is 7 or above.
RESULT: satisfied

QUERY: Confirm if pIC50 reported for the compound N[C@@H](CC(=O)N1CCn2c(C(F)(F)F)nc(C(=O)N3CCS(=O)(=O)CC3)c2C1)Cc1cc(F)c(F)cc1F [Example 6, hydrochloride] is 7 or above.
RESULT: satisfied
